Here, each record is paired with measured aptazyme ON/OFF ratio data.
B1: Pistol ribozyme (parent)
chain: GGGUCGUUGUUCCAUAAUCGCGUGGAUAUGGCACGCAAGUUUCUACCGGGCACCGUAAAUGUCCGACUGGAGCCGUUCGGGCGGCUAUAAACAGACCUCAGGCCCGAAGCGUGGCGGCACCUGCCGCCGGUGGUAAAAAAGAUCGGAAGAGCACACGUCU

variants of: B1; assay: aptazyme ON/OFF ratio, guanine; higher = stronger switching; co-transcriptional cleavage with and without guanine
Keep it simple and answer with nothing but the number.

For orientation, consider the following solved cases.
- U7C U8C G9U U11C C13U: 1.02
- U7G U8C G9A U10C U11C C12U: 1.09
- U7A U8G G9U U10C U11G C12U C13G: 1.31

Reported aptazyme ON/OFF ratio of U7C U8A G9U U11A C12A : 1.19

Reported aptazyme ON/OFF ratio of U7A U10G C12U C13U : 1.36

Reported aptazyme ON/OFF ratio of U7G U8C G9C U10C U11G C12U : 1.1

Reported aptazyme ON/OFF ratio of U7G U8G C13A : 1.4

Reported aptazyme ON/OFF ratio of U8A G9C U10A C12G C13G : 1.11

Reported aptazyme ON/OFF ratio of U7A U8C G9U U10A U11G C12U C13A : 1.17

Reported aptazyme ON/OFF ratio of U7A U8G G9A U10A U11A C12G C13A : 1.29

Reported aptazyme ON/OFF ratio of U7C U8G G9C U10C C12G : 1.08

Reported aptazyme ON/OFF ratio of U7C U8C G9A U10A U11G C12G C13U : 1.14

Reported aptazyme ON/OFF ratio of U8C G9A U10C U11C C12A C13G : 1.12

Reported aptazyme ON/OFF ratio of U7A U8G G9A U10G U11C C12G : 1.38

Reported aptazyme ON/OFF ratio of U7A U8G U10G U11G C12G C13A : 1.45

Reported aptazyme ON/OFF ratio of U7G U8A U10G U11C C12G C13G : 1.26
